Data origin, for the record: patent US20030148956A1

The binders listed here are annotated with their CRF2R EC50.
# targetSystem: T1, CRF2R
# T1 sequence (Q13324 whole entry, species assumed, looked up): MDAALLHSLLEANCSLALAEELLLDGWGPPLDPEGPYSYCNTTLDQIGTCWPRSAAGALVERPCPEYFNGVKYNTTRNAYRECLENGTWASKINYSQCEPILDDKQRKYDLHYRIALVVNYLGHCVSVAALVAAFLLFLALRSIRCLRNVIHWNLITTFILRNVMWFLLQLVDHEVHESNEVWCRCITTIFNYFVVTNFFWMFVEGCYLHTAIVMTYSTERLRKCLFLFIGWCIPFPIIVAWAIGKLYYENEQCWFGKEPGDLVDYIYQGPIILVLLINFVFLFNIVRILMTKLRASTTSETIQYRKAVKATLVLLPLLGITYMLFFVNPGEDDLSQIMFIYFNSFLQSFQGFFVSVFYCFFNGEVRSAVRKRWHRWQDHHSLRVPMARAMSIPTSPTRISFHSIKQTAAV
# measurementDescription: cell-based or functional assay
Ends that are not written are not given here.
Answer with a number only, understood to be in nM.

Example cases with answers are listed next.
• IVLSLDVPIGLLQILLEQTRADAAREQATTNARILARV-NH2 [SEQ ID NO 126] = 13
• SQEPPISLDLPIGLLREVLEMTKADQLAQQAHSNRKLLDIA-NH2 [SEQ ID NO 93] = 100
• ZGPPISIDLPFQLLRKMIEIEKQEKEKQQATNNRLLLATV (C-terminal amide) [SEQ ID NO 12] = 9.72
• ZGPPISIDLPLELLRKMIEIEKQEKEKQQAANNRLLLDTI (C-terminal amide) [SEQ ID NO 82] = 10.9
• IVLSLDVPIGLLQILLEQERARAAREQATTNARILARV-NH2 [SEQ ID NO 119] = 3.57
• ZGPPISIDLPLQLLRKMIEIEKQEKEKQQATTNARILARV (C-terminal amide) [SEQ ID NO 144] = 9.16
• ZGPPISIDLPFQLLRKMIEIEKQEKEKQQATNNRLLLDTI (C-terminal amide) [SEQ ID NO 14] = 6.33
• SQEPPISLDLPTQLLREVLEMTKADQLAQQAHSNRKLLDIA-NH2 [SEQ ID NO 105] = 100

q: Fill in: CRF2R EC50 of ZGPPISIDLSLELLRKMIEIEKQEKEKQQATTNARILARV (C-terminal amide) [SEQ ID NO 142] is ___
a: 9.08

q: Fill in: CRF2R EC50 of Ac-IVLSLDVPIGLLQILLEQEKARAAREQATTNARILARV-NH2 (not fully specified) [SEQ ID NO 107] is ___
a: 12.1

q: Fill in: CRF2R EC50 of ZGPPISIDLPTILLRKMIEIEKQEKEKQQAANNRLLLDTI (C-terminal amide) [SEQ ID NO 50] is ___
a: 19

q: Fill in: CRF2R EC50 of DNPSLSIDLPLILLRTLLELARTQSQRERAEQNAIIFASV-NH2 [SEQ ID NO 175] is ___
a: 5.42
